experiment: Quantification of Vo in lungs by mass spectrometry; type: in vivo, mouse; conditions: mouse, lung, ip, 50 mg/Kg; 30 min post i.p. injection, Npc1+/nmf164 mice

Molecule | concentration at 30 min [ng/g]
O=C(CCCCCCC(=O)Nc1ccccc1)NO [Vo, vorinostat] | 3200
